system: COLO-205 Colon cancer; assay: MTT assay; type: cell-based; conditions: Homo sapiens, 72 hr
measurement label: pIC50
// field semantics: pIC50 = negative decimal log of concentration (mol/L)

Field pIC50 (system: COLO-205 Colon cancer) for entry COc1ccc(S(=O)(=O)Nc2cccc3c2[nH]c2c(C)ccc(C)c23)cc1 = 7.30

###

tested on: Human colorectal adenocarcinoma HT-29 cells; experiment: SRB assay; type: cell-based; settings: 48 hr
measurement label: pIC50
# reply with the number alone; pIC50 is -log10 of concentration in mol/L

# example entries with known answers
- molecule: "Cc1ccc(C)c2c1[nH]c1c(N(C)S(=O)(=O)c3ccc(Cl)s3)cccc12 [Compound 15k]"
  measurement label: "pIC50"
  observed result: 5.41
- molecule: "Cc1ccc(C)c2c1[nH]c1c(NS(=O)(=O)c3ccc(Cl)s3)cccc12"
  measurement label: "pIC50"
  observed result: 5.25

Kindly note the recorded pIC50 for CCCN(c1cccc2c1[nH]c1c(C)ccc(C)c12)S(=O)(=O)c1ccc(OC)cc1 [Compound 17c] , which is 6.10

Reported pIC50 ( COc1ccc(S(=O)(=O)Nc2cccc3c2[nH]c2c(C)ccc(C)c23)cc1 ) = 5.05

Input COc1ccc(S(=O)(=O)Nc2cccc3c2[nH]c2ccccc23)cc1 [Compound 21a] . Output pIC50: 7.15

The recorded pIC50 for COc1ccc(S(=O)(=O)N(c2cccc3c2[nH]c2c(C)ccc(C)c23)C(C)C)cc1 [Compound 18c] is 6.15

For Cc1ccc(C)c2c1[nH]c1c(N(C)S(=O)(=O)c3cccc(C(F)(F)F)c3)cccc12 [Compound 15j] the molecule record lists pIC50 as 5.00

Sure, the documented pIC50 for CCN(c1cccc2c1[nH]c1c(C)ccc(C)c12)S(=O)(=O)c1ccc(OC)cc1 [Compound 16c] is 6.52

Attribution: patent US8173693B2
